The measurements presented in this section are drawn from ChEMBL document CHEMBL1141010.

# ASSAY_COMMENT: Volume of distribution at steady state in rat at 1 mg/kg, iv and 2 mg/kg, po
# Type: ADME, organism-based
# ASSAY_SETUP: in vivo, read-out: Vdss
Below, each entry is listed with its recorded Vd.
RECORDED_ENDPOINT: Vd (L/kg)

>>> recorded_measurement("CN(C)CCOc1cc(-c2cn[nH]c2)ccc1NC(=O)C1COc2ccccc2C1 (stereo not drawn)")
4.6
>>> recorded_measurement("COc1ccc2c(c1)CC(C(=O)Nc1ccc(-c3cn[nH]c3)cc1OCCN(C)C)CO2 (stereo not drawn)")
1.7
>>> recorded_measurement("CN(C)CCOc1cc(-c2cn[nH]c2)ccc1NC(=O)C1COc2ccc(F)cc2C1 (stereo not drawn)")
5.9
